# Study system: Retinoic acid receptor RXR-gamma (Mus musculus, UniProt P28705)
# Procedure summary: Effective potency in transcriptional activation assay in CV-1 cells expressing Retinoid X receptor RXR gamma
# Type: cell-based
Decide using EC50 alone. Strictly below 40 nM: Y. Equal to or above 40 nM: N.

{"Molecule": "CC(/C=C/[C@H]1CCC[C@@H]1c1ccc2c(c1)C(C)(C)CCC2(C)C)=C\\C(=O)O", "Study system": "Retinoic acid receptor RXR-gamma (Mus musculus, UniProt P28705)", "Group label": "Y"}
{"Molecule": "CC(/C=C/C1=C(c2cc3c(cc2C)C(C)(C)CCC3(C)C)CCC1)=C\\C(=O)O", "Study system": "Retinoic acid receptor RXR-gamma (Mus musculus, UniProt P28705)", "Group label": "N"}
{"Molecule": "CC(/C=C/[C@]12CCC[C@@]1(c1ccc3c(c1)C(C)(C)CCC3(C)C)C2)=C\\C(=O)O", "Study system": "Retinoic acid receptor RXR-gamma (Mus musculus, UniProt P28705)", "Group label": "Y"}
{"Molecule": "CC(/C=C/[C@@]1(C)CCCC1c1ccc2c(c1)C(C)(C)CCC2(C)C)=C\\C(=O)O (single isomer, unassigned)", "Study system": "Retinoic acid receptor RXR-gamma (Mus musculus, UniProt P28705)", "Group label": "Y"}
{"Molecule": "C=C1C[C@H](c2ccc3c(c2)C(C)(C)CCC3(C)C)[C@@H](/C=C/C(C)=C/C(=O)O)C1", "Study system": "Retinoic acid receptor RXR-gamma (Mus musculus, UniProt P28705)", "Group label": "N"}
{"Molecule": "CC(/C=C/[C@]1(C)CCCC1c1ccc2c(c1)C(C)(C)CCC2(C)C)=C\\C(=O)O (single isomer, unassigned)", "Study system": "Retinoic acid receptor RXR-gamma (Mus musculus, UniProt P28705)", "Group label": "N"}
{"Molecule": "CC(/C=C/[C@@H]1CCC[C@@H]1c1ccc2c(c1)C(C)(C)CCC2(C)C)=C\\C(=O)O", "Study system": "Retinoic acid receptor RXR-gamma (Mus musculus, UniProt P28705)", "Group label": "Y"}

###

# Study system: UniProt:P13631
# Sequence (P13631 whole entry): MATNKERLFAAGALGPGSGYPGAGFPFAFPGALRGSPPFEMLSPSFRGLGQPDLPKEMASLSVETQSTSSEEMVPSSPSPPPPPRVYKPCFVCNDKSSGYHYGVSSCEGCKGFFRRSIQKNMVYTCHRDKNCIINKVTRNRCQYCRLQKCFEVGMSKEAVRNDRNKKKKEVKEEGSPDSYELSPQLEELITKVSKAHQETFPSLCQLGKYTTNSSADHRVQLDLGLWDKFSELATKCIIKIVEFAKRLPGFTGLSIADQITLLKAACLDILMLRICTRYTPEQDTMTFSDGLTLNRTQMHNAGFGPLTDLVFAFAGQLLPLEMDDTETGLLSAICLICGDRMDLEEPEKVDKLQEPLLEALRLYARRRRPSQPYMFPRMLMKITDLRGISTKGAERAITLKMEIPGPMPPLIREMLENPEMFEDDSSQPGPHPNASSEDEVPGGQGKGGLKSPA
# Procedure summary: Effective potency in transcriptional activation assay in CV-1 cells expressing retinoic acid receptor RAR gamma
# Assay type: functional, cell-based
API: label(entry) gives Satisfied if the entry's EC50 is strictly smaller than 400 nM; on equality or larger values it gives Not satisfied.

{"Compound": "CC(/C=C/[C@H]1CCC[C@@H]1c1ccc2c(c1)C(C)(C)CCC2(C)C)=C\\C(=O)O", "Group label": "Not satisfied"}
{"Compound": "CC(/C=C/C1=C(c2ccc3c(c2)C(C)(C)CCC3(C)C)CCC1)=C\\C(=O)O", "Group label": "Not satisfied"}
{"Compound": "C=C1C[C@H](c2ccc3c(c2)C(C)(C)CCC3(C)C)[C@@H](/C=C/C(C)=C/C(=O)O)C1", "Group label": "Satisfied"}
{"Compound": "CC(/C=C/[C@]12CCC[C@@]1(c1ccc3c(c1)C(C)(C)CCC3(C)C)C2)=C\\C(=O)O", "Group label": "Satisfied"}
{"Compound": "CC(/C=C/[C@@]1(C)CCCC1c1ccc2c(c1)C(C)(C)CCC2(C)C)=C\\C(=O)O (single isomer, unassigned)", "Group label": "Not satisfied"}

###

# Study system: UniProt P10826
# Sequence (P10826 whole entry): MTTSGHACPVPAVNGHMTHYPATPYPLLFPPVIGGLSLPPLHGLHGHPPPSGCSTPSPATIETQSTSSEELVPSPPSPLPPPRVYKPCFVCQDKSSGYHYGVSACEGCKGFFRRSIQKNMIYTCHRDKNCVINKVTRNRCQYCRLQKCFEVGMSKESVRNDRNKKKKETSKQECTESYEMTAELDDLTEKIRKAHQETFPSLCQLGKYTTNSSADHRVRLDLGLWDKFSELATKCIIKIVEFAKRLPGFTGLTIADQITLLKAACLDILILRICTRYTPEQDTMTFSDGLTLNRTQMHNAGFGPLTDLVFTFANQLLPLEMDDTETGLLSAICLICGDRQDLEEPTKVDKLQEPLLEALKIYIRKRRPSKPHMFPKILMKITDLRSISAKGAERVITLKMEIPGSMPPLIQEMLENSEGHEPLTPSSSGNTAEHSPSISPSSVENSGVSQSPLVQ
# Procedure summary: Effective potency in transcriptional activation assay in CV-1 cells expressing retinoic acid receptor RAR beta
# Format: functional, cell-based
pEC50: −log10 of the molar value.
Readout name: pEC50

{"Compound": "C=C1C[C@H](c2ccc3c(c2)C(C)(C)CCC3(C)C)[C@@H](/C=C/C(C)=C/C(=O)O)C1", "Readout name": "pEC50", "Test value": 6.25}
{"Compound": "CC(/C=C/[C@H]1CCC[C@@H]1c1ccc2c(c1)C(C)(C)CCC2(C)C)=C\\C(=O)O", "Readout name": "pEC50", "Test value": 6.20}
{"Compound": "CC(/C=C/C1=C(c2ccc3c(c2)C(C)(C)CCC3(C)C)CCC1)=C\\C(=O)O", "Readout name": "pEC50", "Test value": 6.47}
{"Compound": "CC(/C=C/[C@@]1(C)CCCC1c1ccc2c(c1)C(C)(C)CCC2(C)C)=C\\C(=O)O (single isomer, unassigned)", "Readout name": "pEC50", "Test value": 6.09}

###

Quick reference: EC50 of the listed items.
# Study system: Retinoic acid receptor RXR-beta (Mus musculus, UniProt P28704)
# Sequence (P28704 whole entry): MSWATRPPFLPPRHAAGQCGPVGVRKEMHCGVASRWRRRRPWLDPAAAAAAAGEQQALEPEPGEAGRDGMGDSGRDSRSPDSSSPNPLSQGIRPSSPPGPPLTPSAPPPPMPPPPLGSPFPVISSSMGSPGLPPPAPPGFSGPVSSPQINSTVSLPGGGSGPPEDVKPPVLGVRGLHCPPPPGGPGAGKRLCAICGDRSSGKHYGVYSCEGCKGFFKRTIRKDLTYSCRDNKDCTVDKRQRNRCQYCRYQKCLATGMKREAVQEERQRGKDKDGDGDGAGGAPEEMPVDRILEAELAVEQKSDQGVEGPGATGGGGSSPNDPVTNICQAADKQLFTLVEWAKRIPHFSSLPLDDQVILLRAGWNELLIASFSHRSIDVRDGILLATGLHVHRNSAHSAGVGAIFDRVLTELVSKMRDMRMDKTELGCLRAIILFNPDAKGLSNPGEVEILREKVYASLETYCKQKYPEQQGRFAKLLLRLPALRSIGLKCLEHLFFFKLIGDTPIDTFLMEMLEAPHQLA
# Procedure summary: Effective potency in transcriptional activation assay in CV-1 cells expressing Retinoid X receptor RXR beta

{"Compound": "CC(/C=C/[C@@]1(C)CCCC1c1ccc2c(c1)C(C)(C)CCC2(C)C)=C\\C(=O)O (single isomer, unassigned)", "Study system": "Retinoic acid receptor RXR-beta (Mus musculus, UniProt P28704)", "EC50 [nM]": 14}
{"Compound": "CC(/C=C/[C@]1(C)CCCC1c1ccc2c(c1)C(C)(C)CCC2(C)C)=C\\C(=O)O (single isomer, unassigned)", "Study system": "Retinoic acid receptor RXR-beta (Mus musculus, UniProt P28704)", "EC50 [nM]": 62}
{"Compound": "CC(/C=C/[C@H]1CCC[C@@H]1c1ccc2c(c1)C(C)(C)CCC2(C)C)=C\\C(=O)O", "Study system": "Retinoic acid receptor RXR-beta (Mus musculus, UniProt P28704)", "EC50 [nM]": 10}
{"Compound": "CC(/C=C/[C@@H]1CCC[C@@H]1c1ccc2c(c1)C(C)(C)CCC2(C)C)=C\\C(=O)O", "Study system": "Retinoic acid receptor RXR-beta (Mus musculus, UniProt P28704)", "EC50 [nM]": 29}

###

# Study system: Retinoic acid receptor RXR-gamma (Mus musculus, UniProt P28705)
# Sequence (P28705 whole entry): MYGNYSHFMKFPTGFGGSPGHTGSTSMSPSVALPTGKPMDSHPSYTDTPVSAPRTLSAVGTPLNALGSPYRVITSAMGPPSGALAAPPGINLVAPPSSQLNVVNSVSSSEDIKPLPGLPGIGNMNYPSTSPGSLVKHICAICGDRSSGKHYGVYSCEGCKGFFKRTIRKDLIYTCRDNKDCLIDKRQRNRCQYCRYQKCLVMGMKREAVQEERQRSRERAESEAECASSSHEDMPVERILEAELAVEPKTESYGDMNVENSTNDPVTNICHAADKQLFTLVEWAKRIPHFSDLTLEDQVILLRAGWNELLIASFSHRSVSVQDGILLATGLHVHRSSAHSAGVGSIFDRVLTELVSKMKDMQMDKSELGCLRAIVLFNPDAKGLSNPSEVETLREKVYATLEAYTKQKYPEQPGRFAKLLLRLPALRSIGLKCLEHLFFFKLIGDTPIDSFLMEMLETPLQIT
# Procedure summary: Effective potency in transcriptional activation assay in CV-1 cells expressing Retinoid X receptor RXR gamma
# Assay type: functional, cell-based
pEC50: −log10 of the molar value.
Readout name: pEC50

{"Smiles structure": "C=C1C[C@@H](/C=C/C(C)=C/C(=O)O)[C@@H](c2ccc3c(c2)C(C)(C)CCC3(C)C)C1", "Readout name": "pEC50", "Test value": 6.69}

###

# Study system: Retinoic acid receptor RXR-beta (Mus musculus) (UniProt P28704)
# Sequence (whole entry): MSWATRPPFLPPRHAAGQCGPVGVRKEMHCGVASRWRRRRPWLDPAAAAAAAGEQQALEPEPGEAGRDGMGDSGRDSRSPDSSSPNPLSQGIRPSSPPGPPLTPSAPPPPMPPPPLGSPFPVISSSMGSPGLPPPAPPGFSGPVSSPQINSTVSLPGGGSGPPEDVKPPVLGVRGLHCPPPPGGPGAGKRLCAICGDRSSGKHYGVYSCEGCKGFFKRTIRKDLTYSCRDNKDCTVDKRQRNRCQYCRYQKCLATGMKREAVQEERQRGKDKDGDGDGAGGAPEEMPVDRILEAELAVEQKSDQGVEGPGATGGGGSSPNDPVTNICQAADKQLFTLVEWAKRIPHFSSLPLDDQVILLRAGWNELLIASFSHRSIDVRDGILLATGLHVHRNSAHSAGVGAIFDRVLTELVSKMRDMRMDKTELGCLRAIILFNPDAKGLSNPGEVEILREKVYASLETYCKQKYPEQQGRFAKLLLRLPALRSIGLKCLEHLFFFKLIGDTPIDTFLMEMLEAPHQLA
# Procedure summary: Percent efficacy for Retinoid X receptor RXR beta in CV-1 cell transcriptional activation assay
# Format: functional, cell-based
Listing: Efficacy of selected compounds

{"Compound": "CC(/C=C/[C@@]1(C)CCCC1c1ccc2c(c1)C(C)(C)CCC2(C)C)=C\\C(=O)O (single isomer, unassigned)", "Efficacy": "110%"}
{"Compound": "CC(/C=C/[C@]1(C)CCCC1c1ccc2c(c1)C(C)(C)CCC2(C)C)=C\\C(=O)O (single isomer, unassigned)", "Efficacy": "50%"}
{"Compound": "CC(/C=C/[C@]12CCC[C@@]1(c1ccc3c(c1)C(C)(C)CCC3(C)C)C2)=C\\C(=O)O", "Efficacy": "92%"}
{"Compound": "CC(/C=C/[C@@H]1CCC[C@@H]1c1ccc2c(c1)C(C)(C)CCC2(C)C)=C\\C(=O)O", "Efficacy": "101%"}
{"Compound": "CC(/C=C/C1=C(c2cc3c(cc2C)C(C)(C)CCC3(C)C)CCC1)=C\\C(=O)O", "Efficacy": "44%"}
{"Compound": "C=C1C[C@@H](/C=C/C(C)=C/C(=O)O)[C@@H](c2ccc3c(c2)C(C)(C)CCC3(C)C)C1", "Efficacy": "369%"}
{"Compound": "C=C1C[C@H](c2ccc3c(c2)C(C)(C)CCC3(C)C)[C@@H](/C=C/C(C)=C/C(=O)O)C1", "Efficacy": "169%"}
{"Compound": "CC(/C=C/[C@H]1CCC[C@@H]1c1ccc2c(c1)C(C)(C)CCC2(C)C)=C\\C(=O)O", "Efficacy": "110%"}
{"Compound": "CC(/C=C/C1=C(c2ccc3c(c2)C(C)(C)CCC3(C)C)CCC1)=C\\C(=O)O", "Efficacy": "70%"}
